Data provenance is patent US7655808B2.

System: CCRF-CEM
assay-explanation: Inhibition of proliferation / cytotoxicity, CCRF-CEM
Type: cell-based
condition-label: CCRF-CEM human leukemia cell line; read-out: Tumor Cell Line (IC50, nM) CCRF-CEM
recorded-metric: IC50 (nM)
Expressed in nM, but write only the number.

Examples from the recorded data:
{"compound": "CCC(C=CC1OC(=O)C=CC1C)=CC(C)CC=CC(C)=CC(C)C(=O)C(C)C(O)C(C)CC(C)=CC(=O)NCCC1OCCO1 (stereo not drawn)", "IC50 [nM]": 0.43}
{"compound": "CCC(C=CC1OC(=O)C=CC1C)=CC(C)CC=CC(C)=CC(C)C(=O)C(C)C(O)C(C)CC(C)=CC(=O)NC (stereo not drawn)", "IC50 [nM]": 0.69}

Consider now this further compound.
Query block: Annotate the compound CCC(=C/[C@H](C)C/C=C/C(C)=C/[C@@H](C)C(=O)[C@@H](C)[C@H](O)[C@@H](C)C/C(C)=C/C(=O)O)/C=C/[C@@H]1OC(=O)C=C[C@@H]1C [LMB, Leptomycin B, reference compound] with its measured IC50.
Result block: 0.65
